System Tested: acetylcholine receptor
Assay Notes: SPR, AchR immobilised on chip, peptide at 10 uM
Observable: Binding affinity (RU)

1. RVVTK [5mer-279]; 56
2. RQQRK [5mer-569]; 79
3. RSLYK [5mer-579]; 53
4. RSLRR [5mer-276]; 70
5. RSQQR [5mer-270]; 52
6. RSVSK [5mer-585]; 74
7. RQFTR [5mer-257]; 85
8. KSYQK [5mer-266]; 66
